- Assayed System: Sulfotransferase 1E1 (Bos taurus, UniProt P19217)
- Sequence (P19217 whole entry): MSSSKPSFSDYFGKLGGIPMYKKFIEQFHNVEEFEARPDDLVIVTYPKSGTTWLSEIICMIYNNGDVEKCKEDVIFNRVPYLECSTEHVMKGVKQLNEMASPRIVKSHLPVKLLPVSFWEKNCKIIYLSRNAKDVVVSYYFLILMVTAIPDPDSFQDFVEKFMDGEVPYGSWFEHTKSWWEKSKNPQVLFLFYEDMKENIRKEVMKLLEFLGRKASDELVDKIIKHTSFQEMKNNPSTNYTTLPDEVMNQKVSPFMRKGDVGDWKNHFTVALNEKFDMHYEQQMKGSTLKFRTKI
- Protocol Summary: Inhibition of bovine estrogen sulfotransferase by the compound
Below: a set of entries, each annotated with reported pKi.
Keep it numeric: pKi is minus log10 of the concentration in mol/L.

- Molecule: "C[C@]12CC[C@@H]3c4ccc(OCCCn5cnc6c(N)ncnc65)cc4CC[C@H]3[C@@H]1CCC2=O"
  Assay Endpoint: "pKi"
  Reported Result: 3.00
- Molecule: "C[C@]12CC[C@@H]3c4ccc(OCCOC[C@H]5OC(n6cnc7c(N)ncnc76)[C@H](O)[C@@H]5O)c([N+](=O)[O-])c4CC[C@H]3[C@@H]1CCC2=O (stereo partly drawn)"
  Assay Endpoint: "pKi"
  Reported Result: 4.49

# next molecule below
For `C[C@]12CC[C@@H]3c4ccc(OCCCCn5cnc6c(N)ncnc65)c([N+](=O)[O-])c4CC[C@H]3[C@@H]1CCC2=O` , write its pKi.
3.85
